From: paper PMC5092235

Test: Caco-2 membrane permeability studies
Assay type: in vitro ADME
Details: human, Caco-2
Measured attribute: efflux ratio

{"columns": ["Molecule", "efflux ratio"],
 "data": [
  ["CO[C@@H](CO)Cn1c(C#N)cc2cc(CN3CCC(Nc4ncnc5sc(CC(F)(F)F)cc45)CC3)ccc21 [4-(R)]", "> 20"]
]}

Item: N#Cc1cc2cc(CN3CCC(Nc4ncnc5sc(CC(F)(F)F)cc45)CC3)ccc2n1CC(N)=O | efflux ratio: > 90
